- Test system: HIV-1 NL4.3
- Procedure details: MT-2 cell-based HIV co-culture assay (HeLa CD4 LTR/lacZ indicator cells, β-Gal reporter)
- Condition label: Human immunodeficiency virus 1, MT2, 96 h, read-out: MT-2 Co-Culture Assay EC50
Quick reference for pEC50 among some molecules
pEC50 here: minus log base 10 of the concentration, concentration in moles per litre.

Task item: Fill in the blank: the reported pEC50 of CC(C)(C)NC(=O)[C@@H]1CN(Cc2cccnc2)CCN1C[C@@H](O)C[C@@H](Cc1ccccc1)C(=O)N[C@H]1c2ccccc2C[C@H]1O [IDV, indinavir] is ____.
Reply: 7.59

Task item: What does the record list as pEC50 for Cc1cn([C@H]2C[C@H](N=[N+]=[N-])[C@@H](CO)O2)c(=O)[nH]c1=O [AZT, 3′-Azido-3′-deoxythymidine] ?
Reply: 7.51

Task item: Item under review: O=c1[nH]cnc2c1ncn2[C@H]1CC[C@@H](CO)O1 [ddl, didanosine] . Reported pEC50?
Reply: 5.77

Task item: Consider the molecule shown here: CC(C)Nc1cccnc1N1CCN(C(=O)c2cc3cc(NS(C)(=O)=O)ccc3[nH]2)CC1 [DLV, delavirdine] What is its recorded pEC50?
Reply: 7.47

* * *

- Tested on: HIV-1 NL4.3
- Procedure details: MT-2 cell-based HIV co-culture assay (HeLa CD4 LTR/lacZ indicator cells, β-Gal reporter)
- Condition label: Human immunodeficiency virus 1, MT2, 96 h, read-out: MT-2 Co-Culture Assay EC50
Doc: threshold 10 nM (exclusive). Items with EC50 beneath it return 1; others return -1.

# example entries with known answers
INSERT INTO measurements (molecular_string, target_entity, class_assignment) VALUES
  ('Cc1c(O)cccc1C(=O)N[C@@H](CSc1ccccc1)[C@H](O)CN1C[C@H]2CCCC[C@H]2C[C@H]1C(=O)NC(C)(C)C', 'HIV-1 NL4.3', -1),
  ('CC(C)c1nc(COC(N)=O)n(Cc2ccncc2)c1Sc1cc(Cl)cc(Cl)c1', 'HIV-1 NL4.3', 1),
  ('O=C1Nc2ccc(Cl)cc2[C@@](C#CC2CC2)(C(F)(F)F)O1', 'HIV-1 NL4.3', 1),
  ('Nc1ccn([C@@H]2CS[C@H](CO)O2)c(=O)n1', 'HIV-1 NL4.3', -1);

Task item: Consider the compound CC(C)(C)NC(=O)[C@@H]1C[C@@H]2CCCC[C@@H]2CN1C[C@@H](O)[C@H](Cc1ccccc1)NC(=O)[C@H](CC(N)=O)NC(=O)c1ccc2ccccc2n1 . Is its EC50 strictly less than 10 nM?
Reply: -1

Task item: Determine if O=C(O)C1=CC(=C(c2ccc(O)c(C(=O)O)c2)c2ccc(O)c(C(=O)O)c2)C=CC1=O shows EC50 strictly lower than 10 nM.
Reply: -1

Task item: Does the reported EC50 of the following compound sit strictly below 10 nM? Cc1cn([C@H]2C=C[C@@H](CO)O2)c(=O)[nH]c1=O
Reply: -1
